protein stability index values for the variants below.
B1: BRF1 (parent)
chain: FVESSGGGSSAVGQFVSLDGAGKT

variants of: B1; assay: protein stability index of a GFP-peptide fusion (GPS, HEK-293T) (PSI 1-6); higher = more stable; conditions: c terminus: a fixed tail appended;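 note: lentivirally expressed fusions sorted by FACS into six bins by GFP to DsRed ratio, PSI derived from sequencing read proportions per bin multiplied by bin number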
Returns: the value as a bare number; no unit string appended.

Here are 3 variants together with their reported answers.
[
  {
    "mutant-id": "G6Y",
    "protein stability index": 2.45
  },
  {
    "mutant-id": "Q14C",
    "protein stability index": 1.96
  },
  {
    "mutant-id": "G13L",
    "protein stability index": 2.05
  }
]

Entry under review: `A11F` . Reported protein stability index?
2.02

Entry under review: `G6N` . Reported protein stability index?
1.89

Entry under review: `E3W` . Reported protein stability index?
3.35

Entry under review: `F1M` . Reported protein stability index?
4.99

Entry under review: `A11C` . Reported protein stability index?
1.58

Entry under review: `K23W` . Reported protein stability index?
2.28

Entry under review: `V2D` . Reported protein stability index?
5.17

Entry under review: `V16C` . Reported protein stability index?
3.51

Entry under review: `A21F` . Reported protein stability index?
1.33

Entry under review: `F1A` . Reported protein stability index?
4.71

These entries and their values trace back to the supplement of paper PMC10567573.
